- Test system: rodent lifetime carcinogenesis bioassay, tumor incidence TD50
- experimental-details: carcinogenic potency in animals, long-term in vivo studies, CPDB compilation (AID 1745844)
- condition: mouse; strain CDF1; males; in feed; site: liver; lesion: several types; types named in the paper; dosed 88 weeks; study length 88 weeks
property-label: TD50

smiles-string: Cc1c(N)nc(C)c2c1[nH]c1ccccc12
TD50: 109 mg/kg/day

Note: attention shifts to another entry.
Data request: Report TD50 for Cc1nc(N)cc2[nH]c3ccccc3c12 please.
Data returned: 83.2 mg/kg/day

----------
- Test system: rodent lifetime carcinogenesis bioassay, tumor incidence TD50
- experimental-details: carcinogenic potency in animals, long-term in vivo studies, CPDB compilation (AID 1745844)
- condition: mouse; strain Swiss; males; in drinking water; site: lung; lesion: adenoma; dosed 113 weeks; study length 113 weeks
property-label: TD50 (mg/kg/day)
A number alone suffices; assume mg/kg/day.

Data request: Query for rodent lifetime carcinogenesis bioassay, tumor incidence TD50: what TD50 does the record show for NN ?
Data returned: 2.77
